- protocolText: chemical genetic growth profiling, strain panel (AID 1159580);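 also: tested at 20 µM; growth read once vehicle control cultures reached saturation at 30 °C; 1 = growth at the plate median or of vehicle wells; lower values mean less growth of the strain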
- conditionContext: S. cerevisiae deletion strains, growth OD, locus YOR001W, strain rrp6, hits give low values
In all, about 5,500 compounds went through this assay and about 2,000 (36%) were called active. Another 18% or so got no clear call; they are omitted. The list shows a part of the results.
readout: normalized growth
Answers are plain numbers.

INSERT INTO assay_data (molecule, readout, result) VALUES
  ('COC[C@]12CN(C=O)C3[C@@H]4[C@H](OC)C1[C@]3(C1CC3(O)C(OC)C(O)C4(OC(C)=O)C1C3OC(=O)c1ccccc1)[C@@H](OC)C[C@H]2O (stereo not given in full)', 'normalized growth', 1.02),
  ('COc1cc(NS(C)(=O)=O)ccc1Cc1c2ccccc2nc2ccccc12', 'normalized growth', 0.915),
  ('C=CCS(=O)C[C@H](N)C(=O)O (stereo not given in full)', 'normalized growth', 1.01),
  ('Clc1ccc(C(c2ccccc2Cl)C(Cl)Cl)cc1 (stereo not given)', 'normalized growth', 0.931);

Note to self: normalized growth recorded for `C1N2CN3CN1CN(C2)C3` was 1.01

----------
- protocolText: chemical genetic growth profiling, strain panel (AID 1159580);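 also: tested at 20 µM; growth read once vehicle control cultures reached saturation at 30 °C; 1 = growth at the plate median or of vehicle wells; lower values mean less growth of the strain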
- conditionContext: S. cerevisiae deletion strains, growth OD, locus YCL016C, strain dcc1
Screen size: about 5,500 compounds; about 2,000 (36%) were called active. About 18% were inconclusive and are not listed. No stated cut-off is given here; in the data, active means normalized growth mostly below about 0.91 (no sharp cut-off); inconclusive means no clear call, values can overlap the other calls; inactive means mostly above about 0.92. The list shows a part of the results.
Can you answer with just one of these options? y = active, n = inactive

Some solved cases for reference:
INSERT INTO results (compound, answerlabel) VALUES
  ('Nc1nc(F)nc2c1ncn2[C@@H]1O[C@H](COP(=O)(O)O)[C@@H](O)[C@@H]1O', 'n'),
  ('Clc1ccc(C(Cn2ccnc2)OCc2ccsc2Cl)c(Cl)c1 (stereo unspecified)', 'y'),
  ('Cc1nnc(NS(=O)(=O)c2ccc(N)cc2)s1', 'n');

Hi, sorry to bother you, what did the test record for `CCCn1c(=O)c2[nH]c(C3CCCC3)nc2n(CCC)c1=O` ?
n

Hi, sorry to bother you, what did the test record for `N[C@@H](C(=O)O)[C@@H](O)[C@H](O)[C@H](O)CO` ?
n

Hi, sorry to bother you, what did the test record for `CC(C)(S)[C@@H](N)C(=O)O` ?
n

----------
Answer each item with its documented normalized growth.
- protocolText: chemical genetic growth profiling, strain panel (AID 1159580);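 also: tested at 20 µM; growth read once vehicle control cultures reached saturation at 30 °C; 1 = growth at the plate median or of vehicle wells; lower values mean less growth of the strain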
- conditionContext: S. cerevisiae deletion strains, growth OD, strain wtn01, hits give low values
The whole screen tested about 5,500 compounds, of which about 2,000 (36%) were called active. Not shown: some 18% with an inconclusive outcome. This is one part of the list.

INSERT INTO measurements (molecule, readout, result) VALUES
  ('NC(C(=O)O)C(O)C(=O)O (stereo not drawn)', 'normalized growth', '1.03 (inactive)'),
  ('NC1(C(=O)O)CC1', 'normalized growth', '1.02 (inactive)'),
  ('NC1(C(=O)O)CCC1', 'normalized growth', '0.927 (inactive)'),
  ('O=C(O)C(O)C(O)C(=O)O (stereo not drawn)', 'normalized growth', '0.997 (inactive)');

For each entry beneath this line, provide reported normalized growth.
1. NC1(C(=O)O)CCCC1
2. O=C(O)C(O)C(O)C(O)C(O)C(=O)O (stereo not drawn)
3. CCCCCCCCCCCC(=O)OCC(COP(=O)(O)OCC(O)COP(=O)(O)OCC(COC(=O)CCCCCCCCCCC)OC(=O)CCCCCCCCCCC)OC(=O)CCCCCCCCCCC (stereo not drawn)
4. C[C@]12CCC3c4ccc(O)cc4CCC3C1CCC2=O (stereo partly drawn)
5. C1N2CN3CN1CN(C2)C3
6. CN=C(N)NCCCC(N)C(=O)O (stereo not drawn)
7. COC1C=CC23c4cc5c(cc4CN(CC2O)[C@@H]3C1)OCO5 (stereo partly drawn)

1: 0.994 (inactive); 2: 0.971 (inactive); 3: 0.947 (inactive); 4: 0.967 (inactive); 5: 0.959 (inactive); 6: 0.994 (inactive); 7: 1 (inactive)

For each entry beneath this line, provide reported normalized growth.
1. COc1cc(OC)c2c(=O)cc(-c3ccccc3)oc2c1
2. COc1cc(C)c2c(=O)cc(-c3ccccc3)oc2c1

0.868 (active)
0.968 (inactive)
